Measured logD values are reported for all entries that follow.
- test-description: LogD7.4 determination (octanol/PBS)
- Format: physicochemical
- experimental-conditions: octanol / PBS pH 7.4
Where a SMILES comes first, the peptide text is derived from it. The star is where a group is joined. X1 = O=C(O)CN1CCN(CC(=O)O)CCN([C@H](CCC(=O)*)C(=O)O)CC1
quantity-kind: logD

[
  {
    "molecule": "CC[C@H](C)[C@H](NC(=O)[C@H](CC(N)=O)NC(=O)[C@@H]1CCCN1C(=O)[C@@H]1CCCN1C(=O)[C@H](CCCNC(=N)N)NC(=O)[C@H](CC(=O)O)NC(=O)[C@H](CC(N)=O)NC(=O)[C@H](CO)NC(=O)CC[C@H](C(=O)O)N1CCN(CC(=O)O)CCN(CC(=O)O)CC1)C(=O)N[C@@H](CC(C)C)C(=O)N[C@@H](CCC(N)=O)C(=O)N[C@@H](CCCCN)C(=O)N[C@@H](CCCNC(=N)N)C(=O)O [[^67Ga]Ga-NODA-GA-TJ12P2(K^11), metal not drawn] (X1-SNDRPPNILQKR-OH)",
    "value-reported": -4.78
  },
  {
    "molecule": "CC[C@H](C)[C@H](NC(=O)[C@H](CC(N)=O)NC(=O)[C@@H]1CCCN1C(=O)[C@@H]1CCCN1C(=O)[C@H](CCCNC(=N)N)NC(=O)[C@H](CC(=O)O)NC(=O)[C@H](CC(N)=O)NC(=O)[C@H](CO)NC(=O)CC[C@H](C(=O)O)N1CCN(CC(=O)O)CCN(CC(=O)O)CC1)C(=O)N[C@@H](CC(C)C)C(=O)N[C@@H](CCC(N)=O)C(=O)N[C@@H](CCC(N)=O)C(=O)N[C@@H](CCCNC(=N)N)C(=O)O [[^67Ga]Ga-NODA-GA-TJ12P2(Q^11), metal not drawn] (X1-SNDRPPNILQQR-OH)",
    "value-reported": -4.79
  }
]

###

- test-description: Stability in human serum (radio-HPLC, LC-MS)
- Type: in vitro ADME
- experimental-conditions: 37 °C, 24 h, read-out: radioligand intact after 24 h in human serum
- Method: For human serum stability investigation, 60 μL of the ^67Ga labeling mixture was mixed with 540 μL human serum and incubated at 37 °C. Aliquots of 25 μL were taken after 1, 2, 4 and 24 h. […] The supernatant was analyzed by analytical radio-HPLC. Serum half-lives were determined by non-linear regression according to one-phase decay. […] Subsequently, an aliquot of 5 μL was mixed with 45 μL of Supersol and analyzed with analytical radio-HPLC. […]
Where a SMILES comes first, the peptide text is derived from it. The star is where a group is joined. X1 = O=C(O)CN1CCN(CC(=O)O)CCN([C@H](CCC(=O)*)C(=O)O)CC1
quantity-kind: remaining at 24 h (%)

[
  {
    "compound": "CC[C@H](C)[C@H](NC(=O)[C@H](CC(N)=O)NC(=O)[C@@H]1CCCN1C(=O)[C@@H]1CCCN1C(=O)[C@H](CCCNC(=N)N)NC(=O)[C@H](CC(=O)O)NC(=O)[C@H](CC(N)=O)NC(=O)[C@H](CO)NC(=O)CC[C@H](C(=O)O)N1CCN(CC(=O)O)CCN(CC(=O)O)CC1)C(=O)N[C@@H](CC(C)C)C(=O)N[C@@H](CCC(N)=O)C(=O)N[C@@H](CCC(N)=O)C(=O)N[C@@H](CCCNC(=N)N)C(=O)O [[^67Ga]Ga-NODA-GA-TJ12P2(Q^11), metal not drawn] (X1-SNDRPPNILQQR-OH)",
    "quantity-kind": "remaining at 24 h",
    "value-reported": 72
  }
]
